# Test system: Proteus mirabilis 1287
# TEST: Antimicrobial test in vitro (MIC, agar plate dilution method)
# Format: cell-based
# Set-up: unit not given here
# TEST_CONTEXT: P. mirabilis 1287; 1×10^6 cells/ml
RECORDED_METRIC: minimum inhibitory concentration (MIC)

>>> observed_value("CC1Cc2c(N3CCNCC3)c(F)c(N)c3c(=O)c(C(=O)O)cn1c23 (stereo not drawn) [Compound 2]")
0.2
>>> observed_value("CC1Cc2c(N3CCCCC3)c(F)c(N)c3c(=O)c(C(=O)O)cn1c23 (stereo not drawn) [Compound 4]")
6.25
>>> observed_value("CC1Cc2c(N3CCN(C)CC3)c(F)c(N)c3c(=O)c(C(=O)O)cn1c23 (stereo not drawn) [Compound 1]")
0.39
>>> observed_value("CC1Cc2c(N3CCCC3)c(F)c(N)c3c(=O)c(C(=O)O)cn1c23 (stereo not drawn) [Compound 6]")
6.25
>>> observed_value("CC1Cc2c(N3CCC(O)CC3)c(F)c(N)c3c(=O)c(C(=O)O)cn1c23 (stereo not drawn) [Compound 5]")
1.56
>>> observed_value("CC1Cc2c(N3CCOCC3)c(F)c(N)c3c(=O)c(C(=O)O)cn1c23 (stereo not drawn) [Compound 3]")
0.78

====

# TEST: Measurement of concentration of compounds in urine
# Type: in vivo
# TEST_CONTEXT: rat, urine; male rats, oral 25 mg/kg, 0-24 hours; read-out: Recovery rate in urine
RECORDED_METRIC: dose excreted at 24 h (%)

>>> observed_value("CC1Cc2c(N3CCN(C)CC3)c(F)c(N)c3c(=O)c(C(=O)O)cn1c23 (stereo not shown)")
27.2

====

# Test system: Escherichia coli No. 29
# TEST: Antimicrobial test in vitro (MIC, agar plate dilution method)
# Type: cell-based
# Set-up: unit not given here
# TEST_CONTEXT: E. coli No. 29; 1×10^6 cells/ml
Reported minimum inhibitory concentration (MIC) values for a set of compounds
RECORDED_METRIC: minimum inhibitory concentration (MIC)

>>> observed_value("CC1Cc2c(N3CCC(O)CC3)c(F)c(N)c3c(=O)c(C(=O)O)cn1c23 (stereo not drawn) [Compound 5]")
0.78
>>> observed_value("CC1Cc2c(N3CCCC3)c(F)c(N)c3c(=O)c(C(=O)O)cn1c23 (stereo not drawn) [Compound 6]")
1.56
>>> observed_value("CC1Cc2c(N3CCOCC3)c(F)c(N)c3c(=O)c(C(=O)O)cn1c23 (stereo not drawn) [Compound 3]")
0.2
>>> observed_value("CC1Cc2c(N3CCN(C)CC3)c(F)c(N)c3c(=O)c(C(=O)O)cn1c23 (stereo not drawn) [Compound 1]")
0.1
>>> observed_value("CC1Cc2c(N3CCCCC3)c(F)c(N)c3c(=O)c(C(=O)O)cn1c23 (stereo not drawn) [Compound 4]")
1.56
>>> observed_value("CC1Cc2c(N3CCNCC3)c(F)c(N)c3c(=O)c(C(=O)O)cn1c23 (stereo not drawn) [Compound 2]")
0.1

====

# System: Pseudomonas aeruginosa E-2
# TEST: Antimicrobial test in vitro (MIC, agar plate dilution method)
# Format: cell-based
# Design: unit not given here
# TEST_CONTEXT: P. aeruginosa E-2; 1×10^6 cells/ml
RECORDED_METRIC: minimum inhibitory concentration (MIC)

>>> observed_value("CC1Cc2c(N3CCN(C)CC3)c(F)c(N)c3c(=O)c(C(=O)O)cn1c23 (stereo not drawn) [Compound 1]")
0.78
>>> observed_value("CC1Cc2c(N3CCC(O)CC3)c(F)c(N)c3c(=O)c(C(=O)O)cn1c23 (stereo not drawn) [Compound 5]")
6.25
>>> observed_value("CC1Cc2c(N3CCOCC3)c(F)c(N)c3c(=O)c(C(=O)O)cn1c23 (stereo not drawn) [Compound 3]")
6.25
>>> observed_value("CC1Cc2c(N3CCCCC3)c(F)c(N)c3c(=O)c(C(=O)O)cn1c23 (stereo not drawn) [Compound 4]")
25
>>> observed_value("CC1Cc2c(N3CCCC3)c(F)c(N)c3c(=O)c(C(=O)O)cn1c23 (stereo not drawn) [Compound 6]")
1.56
>>> observed_value("CC1Cc2c(N3CCNCC3)c(F)c(N)c3c(=O)c(C(=O)O)cn1c23 (stereo not drawn) [Compound 2]")
0.39

====

# Tested on: Pseudomonas aeruginosa ATCC 10145
# TEST: Antimicrobial test in vitro (MIC, agar plate dilution method)
# Type: cell-based
# Set-up: unit not given here
# TEST_CONTEXT: P. aeruginosa ATCC 10145; 1×10^8 cells/ml
RECORDED_METRIC: minimum inhibitory concentration (MIC)

>>> observed_value("CC1Cc2c(N3CCCCC3)c(F)c(N)c3c(=O)c(C(=O)O)cn1c23 (stereo not drawn)")
25
>>> observed_value("CC1Cc2c(N3CCC(O)CC3)c(F)c(N)c3c(=O)c(C(=O)O)cn1c23 (stereo not drawn)")
6.25
>>> observed_value("CC1Cc2c(N3CCOCC3)c(F)c(N)c3c(=O)c(C(=O)O)cn1c23 (stereo not drawn)")
6.25
>>> observed_value("CC1Cc2c(N3CCCC3)c(F)c(N)c3c(=O)c(C(=O)O)cn1c23 (stereo not drawn)")
12.5
>>> observed_value("CC1Cc2c(N3CCNCC3)c(F)c(N)c3c(=O)c(C(=O)O)cn1c23 (stereo not drawn)")
0.39
>>> observed_value("CC1Cc2c(N3CCN(C)CC3)c(F)c(N)c3c(=O)c(C(=O)O)cn1c23 (stereo not drawn)")
1.56

====

Listed below: minimum inhibitory concentration (MIC) values for each entry.
# Tested on: Acinetobacter calcoaceticus AC-54
# TEST: Antimicrobial test in vitro (MIC, agar plate dilution method)
# Type: cell-based
# Set-up: unit not given here
# TEST_CONTEXT: A. calcoaceticus AC-54; 1×10^8 cells/ml
RECORDED_METRIC: minimum inhibitory concentration (MIC)

>>> observed_value("CC1Cc2c(N3CCC(O)CC3)c(F)c(N)c3c(=O)c(C(=O)O)cn1c23 (stereo not drawn)")
6.25
>>> observed_value("CC1Cc2c(N3CCCC3)c(F)c(N)c3c(=O)c(C(=O)O)cn1c23 (stereo not drawn)")
6.25
>>> observed_value("CC1Cc2c(N3CCCCC3)c(F)c(N)c3c(=O)c(C(=O)O)cn1c23 (stereo not drawn)")
6.25
>>> observed_value("CC1Cc2c(N3CCNCC3)c(F)c(N)c3c(=O)c(C(=O)O)cn1c23 (stereo not drawn)")
3.13
>>> observed_value("CC1Cc2c(N3CCOCC3)c(F)c(N)c3c(=O)c(C(=O)O)cn1c23 (stereo not drawn)")
1.56
>>> observed_value("CC1Cc2c(N3CCN(C)CC3)c(F)c(N)c3c(=O)c(C(=O)O)cn1c23 (stereo not drawn)")
0.39

====

Measured minimum inhibitory concentration (MIC) of individual entries
# Tested on: Escherichia coli No. 29
# TEST: Antimicrobial test in vitro (MIC, agar plate dilution method)
# Assay type: cell-based
# Design: unit not given here
# TEST_CONTEXT: E. coli No. 29; 1×10^8 cells/ml
RECORDED_METRIC: minimum inhibitory concentration (MIC)

>>> observed_value("CC1Cc2c(N3CCNCC3)c(F)c(N)c3c(=O)c(C(=O)O)cn1c23 (stereo not drawn)")
0.1
>>> observed_value("CC1Cc2c(N3CCOCC3)c(F)c(N)c3c(=O)c(C(=O)O)cn1c23 (stereo not drawn)")
0.39
>>> observed_value("CC1Cc2c(N3CCCCC3)c(F)c(N)c3c(=O)c(C(=O)O)cn1c23 (stereo not drawn)")
1.56
>>> observed_value("CC1Cc2c(N3CCC(O)CC3)c(F)c(N)c3c(=O)c(C(=O)O)cn1c23 (stereo not drawn)")
0.78
>>> observed_value("CC1Cc2c(N3CCCC3)c(F)c(N)c3c(=O)c(C(=O)O)cn1c23 (stereo not drawn)")
1.56
>>> observed_value("CC1Cc2c(N3CCN(C)CC3)c(F)c(N)c3c(=O)c(C(=O)O)cn1c23 (stereo not drawn)")
0.1

Values were extracted from patent US4594347A.
